Each recorded value in this set is attributed to ChEMBL document CHEMBL2163253.

# assay.info: Permeability in human Caco2 cells at 0.5 uM at pH 7.4
# Format: ADME, cell-based
# experimental.setup: Caco-2, pH 7.4, read-out: permeability
measured.parameter: Papp at 0.5 µM (×10⁻⁶ cm/s)

>>> df
                                 cpd_smiles  measured_parameter  recorded_result
0  Nc1c(-c2ccc([C@H]3CC[C@H](CC(=O)O)CC3)cc2)cnc2ccnn12      Papp at 0.5 µM               84

====

# assay.info: Plasma concentration in CD1 mouse postprandial hyperlipidemia model at 3 mg/kg, po administered as single dose 1 hr before oral corn oil bolus challenge and measured after 2 hrs
# Type: ADME, organism-based
# Set-up: dose 3 mg/kg, route oral
measured.parameter: concentration at 2 h (ng/mL)

                                 cpd_smiles    measured_parameter  readout_unit  recorded_result
0  Nc1c(-c2ccc([C@H]3CC[C@H](CC(=O)O)CC3)cc2)cnc2ccnn12  concentration at 2 h         ng/mL             3100
